Target: IL15-IL15 receptor (Homo sapiens) (UniProt P40933+Q13261)
Sequence (P40933 49-162 limits assumed): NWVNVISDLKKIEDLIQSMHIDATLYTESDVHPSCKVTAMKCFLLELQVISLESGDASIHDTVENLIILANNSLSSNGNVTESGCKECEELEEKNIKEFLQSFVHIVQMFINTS
Sequence (Q13261 31-267 partner limits assumed): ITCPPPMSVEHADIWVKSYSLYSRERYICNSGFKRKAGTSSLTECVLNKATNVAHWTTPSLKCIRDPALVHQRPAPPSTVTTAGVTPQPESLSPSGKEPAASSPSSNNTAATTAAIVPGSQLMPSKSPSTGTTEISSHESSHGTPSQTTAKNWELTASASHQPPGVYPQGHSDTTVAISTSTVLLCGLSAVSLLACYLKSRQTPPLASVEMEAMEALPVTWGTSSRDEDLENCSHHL
Assay: Inhibition of IL-15 (unknown origin)/IL-15Ralpha interaction in human PBMC cells assessed as reduction of IL-17 synthesis preincubated for 30 mins followed by IL-15 addition measured after 48 hrs by ELISA
Format: cell-based
Active and inactive are the calls of the source. The rule behind the calls is not given here.
Possible outcomes: True = active, False = inactive

COMPOUND: O=C(O)c1ccc(CNC(=O)C2C3CCC(C3)C2C(=O)O)cc1 (stereo not drawn)
LABEL CLASS: True

COMPOUND: O=C(O)c1ccc(CSc2nnnn2-c2ccc(F)cc2)cc1
LABEL CLASS: True

COMPOUND: O=C(O)CCC(=O)Nc1cc(NC(=O)CCC(=O)O)cc(C(=O)O)c1
LABEL CLASS: True

COMPOUND: NC(CCCCCCC(N)C(=O)O)C(=O)O (stereo not drawn)
LABEL CLASS: True

COMPOUND: NCCC(=O)N[C@@H](Cc1c[nH]cn1)C(=O)O
LABEL CLASS: False

COMPOUND: COC(=O)c1ccc(O)c(C)c1O
LABEL CLASS: True

COMPOUND: COc1ccc(S(=O)(=O)Nc2cccc(C(=O)O)c2)cc1C(=O)O
LABEL CLASS: False

COMPOUND: C/C(C/C(C)=N/N=C(N)N)=N\N=C(N)N
LABEL CLASS: True

====

Target: IL15-IL15 receptor (Homo sapiens) (UniProt P40933+Q13261)
Assay: Inhibition of IL-15 (unknown origin)/IL-15Ralpha interaction in human PBMC cells assessed as reduction of TNF-alpha synthesis preincubated for 30 mins followed by IL-15 addition measured after 48 hrs by ELISA
Format: cell-based
The source made the active and inactive calls. The calls are words filed in the database; no cut-off is given here.
ENDPOINT NAME: TNF-alpha synthesis inhibition (active/not active)

COMPOUND: CCC(=O)Nc1ccc(Cc2ccc(NC(=O)CC)c(C(=O)O)c2)cc1C(=O)O
REPORTED MEASUREMENT: inactive
//
COMPOUND: NCCC(=O)NCCc1c[nH]cn1
REPORTED MEASUREMENT: Active
//
COMPOUND: C/C(C/C(C)=N/N=C(N)N)=N\N=C(N)N
REPORTED MEASUREMENT: Active
//
COMPOUND: NC(CCCCCCC(N)C(=O)O)C(=O)O (centres undefined)
REPORTED MEASUREMENT: Active
//
COMPOUND: Cc1nnc(SCC2=C(C(=O)O)N3C(=O)[C@@H](NC(=O)Cn4cnnn4)[C@H]3SC2)s1
REPORTED MEASUREMENT: Active
//
COMPOUND: O=C(O)c1ccc(CSc2nnnn2C2CCCCC2)cc1
REPORTED MEASUREMENT: inactive
//
COMPOUND: COC(=O)CCC(=O)NCc1ccc(C(=O)OC)cc1
REPORTED MEASUREMENT: Active
//
COMPOUND: O=C(O)c1ccc(CNC(=O)C2C3CCC(C3)C2C(=O)O)cc1 (centres undefined)
REPORTED MEASUREMENT: Active
//
COMPOUND: O=C(O)c1ccc(CSc2nnnn2-c2ccc(F)cc2)cc1
REPORTED MEASUREMENT: Active
//
COMPOUND: O=C(O)Cc1ccc(NC(=O)C2CC=CCC2C(=O)O)cc1 (centres undefined)
REPORTED MEASUREMENT: inactive
//
COMPOUND: O=C(O)c1ccc(CNC(=O)C2CCCCC2C(=O)O)cc1 (centres undefined)
REPORTED MEASUREMENT: Active
//
COMPOUND: COC(=O)c1ccc(O)c(C)c1O
REPORTED MEASUREMENT: Active
//
COMPOUND: NCCC(=O)N[C@@H](Cc1c[nH]cn1)C(=O)O
REPORTED MEASUREMENT: inactive
//
COMPOUND: COc1ccc(-n2nnnc2S(=O)(=O)Cc2ccc(C(=O)O)cc2)cc1
REPORTED MEASUREMENT: inactive
//
COMPOUND: O=C(O)CCC(=O)NCc1ccc(C(=O)O)cc1
REPORTED MEASUREMENT: inactive
//
COMPOUND: NC(N)=NC(=O)CNCC(=O)N=C(N)N
REPORTED MEASUREMENT: Active
//
COMPOUND: COc1ccc(S(=O)(=O)Nc2cccc(C(=O)O)c2)cc1C(=O)O
REPORTED MEASUREMENT: inactive
//
COMPOUND: O=C(O)c1ccc(CNC(=O)C2CC=CCC2C(=O)O)cc1 (centres undefined)
REPORTED MEASUREMENT: inactive
//
COMPOUND: O=C(O)CCC(=O)Nc1cc(NC(=O)CCC(=O)O)cc(C(=O)O)c1
REPORTED MEASUREMENT: Active
